Measured values drawn from PubChem BioAssay AID2060493 for this set.

Collected viability, T/C values appear next to each entry.
- Tested on: 616215-338-R-J1-PDC tumor spheroids, viability;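 further: spheroids exposed to agents for 7 days before readout; percent viability relative to DMSO vehicle control wells taken as 100%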
- procedure.details: Anticancer human tumor 616215-338-R-J1-PDC patient-derived colon adenocarcinoma cell line growth inhibition [GQUAD]
- condition.description: second compound 10 µM; first compound 3.16 µM; stronger effect = lower value; spheroids with HUVEC and MSC
- From the text: DNA G-quadruplex Stabilizer Agents in Combinations in Complex Spheroids A high-throughput screen of multi-cell type tumor spheroids was designed to identify active combinations of DNA G-quadruplex stabilizer agents and targeted small molecules. […] Compounds. […] If the clinical Cmax for an agent had not been determined, the highest concentration tested was 10 microM. […]
Answer in %, number only, no unit symbol.

Example results:
>  <molecule>
CC(=O)O[C@H]1C(=O)[C@@]2(C)[C@H]([C@H](OC(=O)c3ccccc3)[C@]3(O)C[C@H](OC(=O)[C@H](O)[C@@H](NC(=O)c4ccccc4)c4ccccc4)C(C)=C1C3(C)C)[C@]1(OC(C)=O)CO[C@@H]1C[C@@H]2O + Cc1[nH]c2ccc(F)cc2c1-c1nc2c3cccnc3c3ncccc3c2[nH]1

>  <viability, T/C [%]>
10.1

$$$$
>  <molecule>
CC1COCCN1c1cc(-c2ccnn2C)c2ccnc(-c3ccn[nH]3)c2n1 (stereo not drawn) + Cc1cnc(CNC(=O)c2c(=O)c3ccc(N4CCCN(C)CC4)nc3n3c2sc2ccccc23)cn1

>  <viability, T/C [%]>
24.2

$$$$

Alright, here's another molecule for you.
Kindly note the recorded viability, T/C for COc1cc(C2c3cc4c(cc3C(OC3OC5COC(C)OC5C(O)C3O)C3COC(=O)C23)OCO4)cc(OC)c1O (stereo not drawn) + Cc1[nH]c2ccc(F)cc2c1-c1nc2c3cccnc3c3ncccc3c2[nH]1 , which is 34.3
